# Test system: M14 melanoma
# procedureDetails: NCI-60 one-dose screen, 48 h (100 = growth as untreated, 0 = no growth, -100 = all killed)
# assayContext: 10 µM
About 83,000 compounds went through this panel and 20% of them were active in at least one assay; those are over-represented in the sample as a whole.
observable: growth (%)

>>> df
                                        smi  reported
0  CS(=O)(=O)Nc1ccc(Nc2c3ccccc3nc3cc([N+](=O)[O-])ccc23)cc1      4.52
1  COc1cc(/C=C2\Oc3cc(OCC(=O)c4ccccc4)ccc3C2=O)cc(OC)c1OC       125
2  COc1cc(Nc2ccnc(NCCCNc3ccnc4cc(Cl)ccc34)n2)cc(OC)c1     -85.6
3  N#Cc1ncc(-c2ccc(C(F)(F)F)cc2)c(NCc2cc(C(F)(F)F)cc(C(F)(F)F)c2)n1        40
4            CCOC(=O)N/N=C\C(C)=N\NC(=O)OCC       100
5           c1ccc(CP(Cc2ccccc2)c2ccccc2)cc1      95.4

* * *

Form field: growth (one value per entry).
# System: NCI-H23 lung
# procedureDetails: NCI-60 one-dose screen, 48 h (100 = growth as untreated, 0 = no growth, -100 = all killed)
# assayContext: 10 µM
Compounds without any hit were thinned out: in the full panel of roughly 83,000, 20% have a hit.
observable: growth (%)

                                   molecule  experimentalsystem  reported
0  COc1cc(/C=C\c2cc(OC)c(OC)c(OC)c2)cc(NS(=O)(=O)c2ccc(Cl)cc2)c1OC        NCI-H23 lung        41
1  CCN1CCCC1CNC(=O)c1ncc(-c2ccc(C(F)(F)F)cc2)c(NC2CCCCCC2)n1 (stereo not drawn)        NCI-H23 lung      92.5
2  COc1ccc(NC(=O)CSc2nc3ccccc3c(=O)n2CCc2ccccc2)cc1        NCI-H23 lung      92.2

* * *

# Test system: SK-MEL-5 melanoma
# procedureDetails: NCI-60 one-dose screen, 48 h (100 = growth as untreated, 0 = no growth, -100 = all killed)
# assayContext: 10 µM
About 83,000 compounds went through this panel and 20% of them were active in at least one assay; those are over-represented in the sample as a whole.
Rule: Yes for growth not less than 30%, No for anything less.

In [3]: df
Out[3]:
                                   molecule  experimentalsystem  categorylabel
0  O=C(Nc1ccncc1)C(=O)c1cn(S(=O)(=O)c2cccc(Cl)c2)c2ccccc12   SK-MEL-5 melanoma            Yes
1  O=S(=O)(Nc1ccccn1)c1ccc(N=Nc2ccc(O)c3ncccc23)cc1   SK-MEL-5 melanoma             No
2  O=C1/C(=C\c2ccc(F)cc2)CN(C(=O)c2ccccc2)C/C1=C\c1ccc(F)cc1   SK-MEL-5 melanoma            Yes
3  COc1ccc2c(c1)O/C(=C\c1ncc([N+](=O)[O-])n1C)C2=O   SK-MEL-5 melanoma             No
4  CC(=O)OCc1cc(-c2nc3ccccc3[nH]c2=O)nn1-c1ccc(Cl)cc1   SK-MEL-5 melanoma            Yes
5              ClCC#CCSc1ncnc2c1ncn2CC#CCCl   SK-MEL-5 melanoma             No
6  CCN(CC)CCCC(C)Nc1ccc2ccc(Cl)cc2n1 (stereo not drawn)   SK-MEL-5 melanoma            Yes
7  O=C1C(=O)c2ccccc2C(O)=C1CCCc1ccc(C2CCCCCC2)cc1   SK-MEL-5 melanoma             No

* * *

# Tested on: SK-MEL-2 melanoma
# procedureDetails: NCI-60 one-dose screen, 48 h (100 = growth as untreated, 0 = no growth, -100 = all killed)
# assayContext: 10 µM
The panel holds about 83,000 compounds, 20% with a hit somewhere; the sample as a whole holds those more often.
Form field: growth (one value per entry).
observable: growth (%)

In [3]: df
Out[3]:
                                    molecule  scaleunit  reported
 0  C=C1c2c(C)nn(-c3ccc(OC)cc3)c2N(C)C23C[C@@H]1C1(C)c4c(C)nn(-c5ccc(OC)cc5)c4N(C)C(C)(C[C@H]12)C3 (stereo partly drawn)          %      37.2
 1  Nc1c(C(=O)Nc2ccccc2Cl)sc2nc3c(cc12)C(=O)CCC3          %      35.4
 2  NC(=O)c1ccc(-c2cccc3c(=O)nc(N4CCOCC4)oc23)cc1          %       102
 3  COc1cc(NC(=O)c2sc3nc4c(cc3c2N)C(O)CCC4)cc(OC)c1 (stereo not drawn)          %      61.6
 4                            CC(=O)CSC(C)=O          %       116
 5               C[N+](C)(C)c1ncnc2nc[nH]c12          %      75.8
 6  COc1cc(-c2nnc(-c3c(-c4ccc(F)cc4)nc4ccccn34)o2)cc(OC)c1OC          %       106
 7  COc1cc(/C=C2\CCCC3=C2N=C2SC=NN2C3c2cc(OC)c(OC)c(OC)c2)cc(OC)c1OC (stereo not drawn)          %      89.3
 8  COc1ccc(-n2c(SCc3cc(OC)c(OC)c(OC)c3)nc3ccc(C)cc3c2=O)cc1          %      64.8
 9             O=C(c1cccs1)c1ccccc1Cc1ccccc1          %      96.1
10  Cc1ccc(NC(=O)CSc2nc3ccccc3c(=O)n2CCc2ccccc2)c(C(=O)O)c1          %      89.8
11  COc1ccc(-c2nc3sc(C4CC4)nn3c2/C=C2/C(=O)Nc3ccc(OC)cc32)cc1          %      49.6
12          CCCCC/C=C/C(=O)CCc1ccc(O)c(OC)c1          %       121

* * *

# Test system: SF-539 CNS
# procedureDetails: NCI-60 one-dose screen, 48 h
# assayContext: 10 µM
This is part of a sample that, as a whole, favours compounds with a hit. Of some 83,000 tested, about 20% had one in any assay. Calls of active or inactive are those of the source. The calls were made as follows: active = growth percent below 10; inactive = the rest.
Possible outcomes: active, inactive

molecule	categoryLabel
NC1(C(=O)O)CSSC1	inactive
CCOC(=O)C(CSC(c1ccccc1)(c1ccccc1)c1ccccc1)NC(=O)C(CSC(c1ccccc1)(c1ccccc1)c1ccccc1)NC(c1ccccc1)(c1ccccc1)c1ccccc1 (centres undefined)	inactive
O=C1OCC2=C1C(c1cccc(Cl)c1)c1cc3c(cc1N2CCO)OCO3 (centres undefined)	active
COc1ccc(-c2nn(-c3cccc(NC(=O)c4cccc(C(F)(F)F)c4)c3)cc2-c2ccncc2)cc1Cl	active
c1ccc2c(c1)oc1c3cccnc3ccc21	inactive
CN(C)CCS(=O)(=O)CCN(C)C	inactive
Cc1cccc(NC2=C(C#N)C(=O)NC3(CCCC3)S2)c1	inactive
CN(C)CCOc1nc2ccccc2c2c1-c1ccc(Cl)cc1C2=O	active
O=C(Nc1nc2ccc(F)cc2s1)c1cc(-c2ccc(F)cc2)n2nc(-c3ccccc3)cc2n1	inactive

* * *

# Tested on: UO-31 renal
# procedureDetails: NCI-60 one-dose screen, 48 h (100 = growth as untreated, 0 = no growth, -100 = all killed)
# assayContext: 10 µM
Compounds without any hit were thinned out: in the full panel of roughly 83,000, 20% have a hit.
Category | rule: reported growth within range, see one = under 30%, two = from 30% up to 80%, three = 80% and over

>>> df
                                   molecule  categorylabel
0     COc1ccc(Cl)cc1C(=O)Nc1nc2ccc(Cl)cc2s1            two
1  CCN(CC)CCCC(C)Nc1ccc2ccc(Cl)cc2n1 (centres undefined)          three
2  COc1cccc(C2C3=C(COC3=O)N(CCO)c3cc(OC)ccc32)c1 (centres undefined)            two
3                            CCCC#CCN(CC)CC          three
4  COc1ccc(-c2nn(-c3cccc(NC(=O)Nc4cc(C(F)(F)F)cc(C(F)(F)F)c4)c3)cc2-c2ccncc2)cc1Cl            one
5  CCOCC(=O)C(C#N)c1ccc(Cl)c(Cl)c1 (centres undefined)          three
6     CSc1nn(-c2ccccc2)c2ncnc(Oc3ccccc3)c12            one

* * *

# System: SNB-19 CNS
# procedureDetails: NCI-60 one-dose screen, 48 h (100 = growth as untreated, 0 = no growth, -100 = all killed)
# assayContext: 10 µM
This is part of a sample that, as a whole, favours compounds with a hit. Of some 83,000 tested, about 20% had one in any assay.
Form field: growth (one value per entry).
observable: growth (%)

In [3]: df
Out[3]:
                                        smi  reported
0  Cc1cc(N(CCCNc2ccnc3cc(Cl)ccc23)Cc2cccs2)nc(Cl)n1      76.1
1                               CSC1=NCCCC1       110
2            Nc1ccc2c(c1)Cc1cc(N)c(Br)cc1-2       114
3   O=C(O)c1ccc(P(=O)(O)O)c([N+](=O)[O-])c1       107
